Kindly state Albumin binding degree for each of the entries shown.
Target: BSA (Bos taurus)
Assay: Albumin binding degree by ultrafiltration
Assay type: in vitro ADME, bovine
Set-up: purchased Thermo Fisher
Settings: 5% albumin solution, SeC 20 µg/mL

Prompt: Quickly give me recorded Albumin binding degree for `C[Se]CC[C@H](N)C(=O)O`
Completion: < 3%

Prompt: Output Albumin binding degree of `O=c1c2ccccc2[se]n1-c1ccccc1`
Completion: 52–100%

Prompt: Note down Albumin binding degree recorded for `C[Se]C[C@H](N)C(=O)O`
Completion: < 3%

Prompt: Tell us which Albumin binding degree value is on record for `C[Se](=O)O`
Completion: 52–100%

Prompt: Give the reported Albumin binding degree for this molecule. N#C[Se]Cc1ccc(C[Se]C#N)cc1 [p-XSC, p-xyleneselenocyanate]
Completion: 52–100%

Prompt: Note down Albumin binding degree recorded for NC(C[Se][Se]CC(N)C(=O)O)C(=O)O (stereo not drawn)
Completion: 52–100%

###

Test: Pharmacokinetic study in mouse
Settings: C57BL/6 albino, in vivo, iv
Readout Type: half-life (min)
Numbers only here, please. The scale is min.

Prompt: Fill in half-life for record N#C[Se]Cc1ccc(C[Se]C#N)cc1 [p-XSC, p-xyleneselenocyanate]
Completion: 30.6

###

Molecular target: human serum albumin (Homo sapiens)
Assay: XAS linear combination fitting of SeC-human plasma mixture (SeC-HP)
Conditions: albumin-bound share in SeC-human plasma mixture, XANES linear combination fitting, total SeC 20 µg/ml
Method: SeC solution (40 µL; 2 mg/mL) was mixed with HSA (50 mg/mL in H2O; […]) and kept at room temperature for 30 min. The crude material was separated on a Superdex 200 Increase 10/300 GL column (GE Healthcare). The mobile phase consisted of ACN/H2O (5/95; v/v) at a flow rate of 0.75 mL/min. […] The mixture of SeC and human plasma (SeC-HP) was prepared. […] Self-supported 5 mm pellets of SeC-HSA or SeC-HP (~20 mg) were measured in fluorescence mode using a 5 elements Silicon drift detector. […]
Readout Type: SeC-HSA (%)
Write the number in % without appending the unit.

Prompt: Check the records and state SeC-HSA (%) for `C[Se](=O)O`
Completion: 100.0

Prompt: Tell me measured SeC-HSA (%) for N#C[Se]Cc1ccc(C[Se]C#N)cc1 [p-XSC, p-xyleneselenocyanate] please.
Completion: 100.0

Prompt: Annotate the compound `O=c1c2ccccc2[se]n1-c1ccccc1` with its measured SeC-HSA (%).
Completion: 91.5

Prompt: For NC(C[Se][Se]CC(N)C(=O)O)C(=O)O (stereo not shown) , write its SeC-HSA (%).
Completion: 80.4

###

Assay: Pharmacokinetic study in mouse
Conditions: C57BL/6 albino, plasma, iv
Readout Type: clearance (mL/min)
Please give a number only; it is taken to be in mL/min.

Prompt: Specify measured clearance for `O=c1c2ccccc2[se]n1-c1ccccc1` .
Completion: 0.177

Prompt: Read off the recorded clearance for NC(C[Se][Se]CC(N)C(=O)O)C(=O)O (centres unmarked)
Completion: 0.642

###

Assay: Pharmacokinetic study in mouse
Conditions: C57BL/6 albino, in vivo, iv
Readout Type: clearance (mL/min)
Numbers only here, please. The scale is mL/min.

Prompt: For the molecule N#C[Se]Cc1ccc(C[Se]C#N)cc1 [p-XSC, p-xyleneselenocyanate] , give its reported clearance.
Completion: 0.0967

###

Target: BSA (Bos taurus, UniProt P02769)
Sequence (P02769 25-607): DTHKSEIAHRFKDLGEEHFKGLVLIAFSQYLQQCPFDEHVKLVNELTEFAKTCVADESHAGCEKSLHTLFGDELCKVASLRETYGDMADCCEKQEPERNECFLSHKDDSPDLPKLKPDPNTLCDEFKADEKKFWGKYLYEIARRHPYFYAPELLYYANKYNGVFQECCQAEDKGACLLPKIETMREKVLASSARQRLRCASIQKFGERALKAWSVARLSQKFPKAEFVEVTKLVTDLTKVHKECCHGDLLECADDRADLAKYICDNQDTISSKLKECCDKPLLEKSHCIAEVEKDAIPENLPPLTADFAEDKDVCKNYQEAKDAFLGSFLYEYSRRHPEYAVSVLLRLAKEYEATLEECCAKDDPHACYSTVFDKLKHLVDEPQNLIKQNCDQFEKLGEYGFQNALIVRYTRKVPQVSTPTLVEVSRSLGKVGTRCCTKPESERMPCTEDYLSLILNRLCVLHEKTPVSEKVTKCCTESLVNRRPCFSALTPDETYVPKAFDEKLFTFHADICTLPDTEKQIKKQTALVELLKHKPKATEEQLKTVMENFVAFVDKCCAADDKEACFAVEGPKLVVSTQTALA
Assay: Extraction efficiency of parent SeC after deproteinization (BSA, NEM-pretreated BSA)
Conditions: 5% BSA (pristine albumin) after deproteinization, SeC 20 µg/mL
Readout Type: Extraction efficiency (%)
Unit % implied. Number only.

Prompt: Provide Extraction efficiency value for the following compound: C[Se](=O)O [MeSeA, methylseleninic acid]
Completion: 0

Prompt: Kindly indicate its recorded Extraction efficiency. Item: NC(C[Se][Se]CC(N)C(=O)O)C(=O)O (stereo not shown) [CysSe2, Selenocystine]
Completion: 21.4

Prompt: Give the reported value of Extraction efficiency for this record: O=c1c2ccccc2[se]n1-c1ccccc1 [Ebselen]
Completion: 9.3

###

Test system: C1498 cells
Test: Cytotoxicity of SeC (CellTiter-Glo)
Conditions: C1498 leukemic cells, 24 hr, within the concentration range tested
Readout Type: Cytotoxicity

Compound	System Tested	Cytotoxicity
O=c1c2ccccc2[se]n1-c1ccccc1	C1498 cells	showed cytotoxicity
NC(C[Se][Se]CC(N)C(=O)O)C(=O)O (stereo not drawn)	C1498 cells	showed cytotoxicity
N#C[Se]Cc1ccc(C[Se]C#N)cc1 [p-XSC, p-xyleneselenocyanate]	C1498 cells	showed cytotoxicity
C[Se]C[C@H](N)C(=O)O	C1498 cells	no cytotoxic effect
C[Se](=O)O	C1498 cells	showed cytotoxicity

// moving on: another record for Cytotoxicity
Prompt: Give the observed Cytotoxicity of `C[Se]CC[C@H](N)C(=O)O` for C1498 cells.
Completion: no cytotoxic effect

###

Please respond with reported SeC (%) for every item in the list.
Target: human serum albumin (Homo sapiens, UniProt P02768)
Sequence (P02768 25-609): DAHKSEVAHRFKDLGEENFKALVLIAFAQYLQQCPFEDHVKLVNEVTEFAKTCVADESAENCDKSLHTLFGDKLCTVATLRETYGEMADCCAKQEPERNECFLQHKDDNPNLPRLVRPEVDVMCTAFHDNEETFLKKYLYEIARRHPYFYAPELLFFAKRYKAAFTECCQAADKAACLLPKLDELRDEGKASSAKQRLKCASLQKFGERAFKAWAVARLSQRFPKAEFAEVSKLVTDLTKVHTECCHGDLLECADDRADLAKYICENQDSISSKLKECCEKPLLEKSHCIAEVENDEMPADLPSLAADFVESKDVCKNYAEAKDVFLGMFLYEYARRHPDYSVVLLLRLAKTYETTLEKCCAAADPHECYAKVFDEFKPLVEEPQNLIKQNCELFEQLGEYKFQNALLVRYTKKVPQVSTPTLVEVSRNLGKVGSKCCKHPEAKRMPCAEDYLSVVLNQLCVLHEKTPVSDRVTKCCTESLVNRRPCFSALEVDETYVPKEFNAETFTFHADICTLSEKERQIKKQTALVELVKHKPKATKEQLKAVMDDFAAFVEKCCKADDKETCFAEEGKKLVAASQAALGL
Experiment: XAS linear combination fitting of SeC-human plasma mixture (SeC-HP)
Settings: free SeC share in SeC-human plasma mixture, XANES linear combination fitting, total SeC 20 µg/ml
Protocol: SeC solution (40 µL; 2 mg/mL) was mixed with HSA (50 mg/mL in H2O; […]) and kept at room temperature for 30 min. The crude material was separated on a Superdex 200 Increase 10/300 GL column (GE Healthcare). The mobile phase consisted of ACN/H2O (5/95; v/v) at a flow rate of 0.75 mL/min. […] The mixture of SeC and human plasma (SeC-HP) was prepared. […] Self-supported 5 mm pellets of SeC-HSA or SeC-HP (~20 mg) were measured in fluorescence mode using a 5 elements Silicon drift detector. […]
Supply the numeric figure in %, leaving out any unit text.

Prompt: Supply reported SeC (%) belonging to this compound: N#C[Se]Cc1ccc(C[Se]C#N)cc1 [p-XSC, p-xyleneselenocyanate]
Completion: 0

Prompt: Report measured SeC (%); entry is O=c1c2ccccc2[se]n1-c1ccccc1 [Ebselen]
Completion: 8.5

Prompt: State its SeC (%): NC(C[Se][Se]CC(N)C(=O)O)C(=O)O (stereo not shown) [CysSe2, Selenocystine]
Completion: 19.6

Prompt: Specify reported SeC (%) for the compound shown: C[Se](=O)O [MeSeA, methylseleninic acid]
Completion: 0

Recorded values, source paper PMC6985102.
